assay: Lipophilicity, LogD of the compound in 1-Octanol/PBS by shake flask method; format: physicochemical
readout type: logD
Answers are plain numbers.

**Q:** Which value of logD has been reported for Cn1cnc2ccc(-c3nc4ccc(C5CC5)cc4n(-c4ccc(OC(F)F)cc4)c3=O)cc21 in the records?
**A:** 3.69

* * *

system: B16-F10; assay: Antiproliferative activity against mouse B16-F10 cells harboring wild type MTAP assessed as inhibition of cell viability measured for 96 hrs by SRB assay; assay type: functional, cell-based; conditions: B16-F10, 96 h
I'd be grateful if you could share measured pIC50 for these entries.
Answers are plain numbers, as −log10 of the molar value.

See these solved cases before continuing.
{"columns": ["input smiles", "pIC50"],
 "data": [
  ["Cc1nc2ccc(-c3nc4cnc(NCC(F)(F)F)nc4n(-c4ccc(OC(F)F)cc4)c3=O)cc2n1C", 4.74],
  ["Cn1cnc2ccc(-c3nc4ccc(C5CC5)nc4n(-c4ccc(OC(F)F)cc4)c3=O)cc21", 6.10],
  ["COc1ccc(-n2cc3cnc(NCC(F)(F)F)nc3c(-c3ccc(Br)cc3)c2=O)cc1", 5.67],
  ["Cn1cnc2ccc(-c3nc4cnc(NCC5CC5)nc4n(-c4ccc(OC(F)F)cc4)c3=O)cc21", 5.14],
  ["Cn1nnc2ccc(-c3nc4ccc(C5CC5)cc4n(-c4ccc(OC(F)F)cc4)c3=O)cc21", 5.04]
]}

// below: pIC50 requested for another compound
**Q:** I have this compound here, O=c1c(-c2ccc3ncn(C4CC4)c3c2)nc2cnc(NCC(F)(F)F)nc2n1-c1ccc(OC(F)F)cc1 , and I need its recorded pIC50.
**A:** 4.78

* * *

target: S-adenosylmethionine synthase isoform type-2 (Homo sapiens); experiment: Inhibition of MAT2A (unknown origin) using L-methionine and ATP as substrate preincubated with compound for 10 mins followed by substrate addition and measured after 60 mins by kinase-glo max reagent based microplate reader analysis
Sequence (P31153 whole entry, canonical isoform): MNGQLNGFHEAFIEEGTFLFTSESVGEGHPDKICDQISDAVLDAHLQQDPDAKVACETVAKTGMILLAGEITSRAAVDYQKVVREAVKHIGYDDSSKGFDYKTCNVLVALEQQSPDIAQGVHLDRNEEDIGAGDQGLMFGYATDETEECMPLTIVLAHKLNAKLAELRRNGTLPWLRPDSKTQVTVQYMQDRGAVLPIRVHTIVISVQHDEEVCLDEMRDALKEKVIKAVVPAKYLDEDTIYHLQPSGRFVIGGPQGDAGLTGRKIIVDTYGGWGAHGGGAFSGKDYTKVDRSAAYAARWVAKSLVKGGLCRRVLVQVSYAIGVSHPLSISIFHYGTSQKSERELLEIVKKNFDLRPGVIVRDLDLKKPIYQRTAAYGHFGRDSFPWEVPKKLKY
IC50 under 100 nM gets true (1), anything at or over 100 nM gets false (0).

{"columns": ["input smiles", "class label"],
 "data": [
  ["COc1ccc(-c2nc3cnc(NCC(F)(F)F)nc3n(-c3ccc(OC(F)F)nc3)c2=O)cc1", "false (0)"],
  ["COc1ccc(-c2nc3cnc(NCC(F)(F)F)nc3n(-c3ccc(C(F)(F)F)cc3)c2=O)cc1", "false (0)"],
  ["Cn1cnc2ccc(-c3nc4cnc(NCC(F)(F)F)nc4n(-c4ccc(OC(F)F)cc4)c3=O)cc21", "true (1)"]
]}

**Q:** Find out if reported IC50 for Cn1cnc2ccc(-c3nc4cnc(C5CC5)cc4n(-c4ccc(OC(F)F)cc4)c3=O)cc21 is less than 100 nM
**A:** false (0)

**Q:** Quick one: COc1ccc2nc(-c3ccc4ncn(C)c4c3)c(=O)n(-c3ccc(OC(F)F)cc3)c2c1
**A:** true (1)

**Q:** And the next one, Cc1nc2ccc(-c3nc4cnc(NCC(F)(F)F)nc4n(-c4ccc(OC(F)F)cc4)c3=O)cc2n1C ?
**A:** true (1)

**Q:** Try this compound too: COc1ccc(-c2nc3cnc(NCC(F)(F)F)nc3n(-c3ccc(OCC(F)F)cc3)c2=O)cc1
**A:** false (0)

**Q:** Now consider O=c1c(-c2ccc3ncccc3c2)nc2cnc(NCC(F)(F)F)nc2n1-c1ccc(OC(F)F)cc1 .
**A:** false (0)

* * *

molecular target: S-adenosylmethionine synthase isoform type-2 (Homo sapiens); test: Inhibition of MAT2A (unknown origin) using L-methionine and ATP as substrate preincubated with compound for 10 mins followed by substrate addition and measured after 60 mins by kinase-glo max reagent based microplate reader analysis
IC50 strictly under 0.1 µM means YES; at 0.1 µM or over means NO.

{"columns": ["input smiles", "class label"],
 "data": [
  ["COc1ccc(-c2nc3cnc(NCC(F)(F)F)nc3n(-c3cccc(OC(F)F)c3)c2=O)cc1", "NO"],
  ["Cn1cc2cc(-c3nc4cnc(NCC(F)(F)F)nc4n(-c4ccc(OC(F)F)cc4)c3=O)ccc2n1", "YES"],
  ["CCOc1ccc2nc(-c3ccc4ncn(C)c4c3)c(=O)n(-c3ccc(OC(F)F)cc3)c2c1", "NO"],
  ["Cn1cnc2ccc(-c3nc4ccc(C5CC5)cc4n(-c4ccc(OC(F)F)cc4)c3=O)cc21", "YES"]
]}

**Q:** Please let me know if O=c1c(-c2ccc3c(c2)CCO3)nc2cnc(NCC(F)(F)F)nc2n1-c1ccc(OC(F)F)cc1 shows IC50 below 0.1 µM.
**A:** YES

**Q:** // next record CC(C)n1cnc2ccc(-c3nc4ccc(C5CC5)cc4n(-c4ccc(OC(F)F)cc4)c3=O)cc21
**A:** NO

**Q:** Also Cn1cnc2ccc(-c3nc4ccc(C5CCC5)cc4n(-c4ccc(OC(F)F)cc4)c3=O)cc21 ?
**A:** NO

These measurements were taken from ChEMBL document CHEMBL6096692.
